// provenance: patent US20180235949A1

# System: P-glycoprotein (MDR1)
# assayProcedure: MDR1-MDCK permeability and P-gp substrate identification (bi-directional)
# Type: in vitro ADME, canine
# conditionParameters: dog, MDCK-MDR1, pH 7.4; minus inhibitor (no cyclosporin A)
readoutLabel: efflux ratio at 60 min, 10 µM
Respond with the number and no other words.

Param readout= efflux ratio at 60 min, 10 µM; system= P-glycoprotein (MDR1); entry= "CCC(=O)NC1CCN(CCc2ccccc2)CC1" ; returns value.
1.48

###

# targetOrTestSystem: UniProt:P18089
# assayProcedure: α2B (h) (antagonist effect) cellular functional assay
# Assay type: cell-based
Threshold 400 µM. IC50 below it: Met. IC50 at it or above: Not met.

is_below(IC50, 400 µM) for O=C(NC1CCN(CCc2ccccc2)CC1)c1ccccc1 [N-(1-phenethylpiperidin-4-yl)benzamide] ?
Met

is_below(IC50, 400 µM) for "O=C(NC1CCN(CCc2ccccc2)CC1)c1ccco1" ?
Met

is_below(IC50, 400 µM) for "O=C(CCCCCCCBr)NC1CCN(CCc2ccccc2)CC1" ?
Met

is_below(IC50, 400 µM) for "CCC(=O)NC1CCN(CCc2cccs2)CC1" ?
Not met

Moving on to another compound below.
is_below(IC50, 400 µM) for "O=C(NC1CCN(CCc2ccccc2)CC1)c1ccoc1" ?
Met

###

# targetOrTestSystem: CYP2D6 (Homo sapiens, UniProt P10635)
# Construct: from tissue
# Sequence (P10635 whole entry): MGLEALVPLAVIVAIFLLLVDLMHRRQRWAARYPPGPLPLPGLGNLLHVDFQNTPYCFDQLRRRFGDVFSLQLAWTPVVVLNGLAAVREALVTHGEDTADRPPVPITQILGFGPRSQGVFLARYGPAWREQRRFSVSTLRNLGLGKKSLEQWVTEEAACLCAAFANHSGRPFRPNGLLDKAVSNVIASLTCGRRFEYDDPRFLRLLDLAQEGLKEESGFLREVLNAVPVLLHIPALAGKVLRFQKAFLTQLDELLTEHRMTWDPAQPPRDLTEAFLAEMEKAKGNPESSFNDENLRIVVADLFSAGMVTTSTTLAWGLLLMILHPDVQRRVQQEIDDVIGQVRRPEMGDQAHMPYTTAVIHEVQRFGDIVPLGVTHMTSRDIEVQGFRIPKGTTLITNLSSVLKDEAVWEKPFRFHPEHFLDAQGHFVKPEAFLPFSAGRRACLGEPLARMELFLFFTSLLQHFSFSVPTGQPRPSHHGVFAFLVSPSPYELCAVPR
# assayProcedure: Time dependent inhibition of CYP2D6 (dextromethorphan; IC50 shift)
# Format: in vitro ADME
# conditionParameters: human, microsomes, probe dextromethorphan (5 µM); 0 minute incubation
readoutLabel: IC50 at 5 min

Param readout= IC50 at 5 min; system= CYP2D6 (Homo sapiens, UniProt P10635); entry= CCC(=O)NC1CCN(CCc2ccccc2)CC1 [HCV-3] ; returns value.
> 25 µM

###

# targetOrTestSystem: α2B (h) (Homo sapiens, UniProt P18089)
# Sequence (P18089 whole entry): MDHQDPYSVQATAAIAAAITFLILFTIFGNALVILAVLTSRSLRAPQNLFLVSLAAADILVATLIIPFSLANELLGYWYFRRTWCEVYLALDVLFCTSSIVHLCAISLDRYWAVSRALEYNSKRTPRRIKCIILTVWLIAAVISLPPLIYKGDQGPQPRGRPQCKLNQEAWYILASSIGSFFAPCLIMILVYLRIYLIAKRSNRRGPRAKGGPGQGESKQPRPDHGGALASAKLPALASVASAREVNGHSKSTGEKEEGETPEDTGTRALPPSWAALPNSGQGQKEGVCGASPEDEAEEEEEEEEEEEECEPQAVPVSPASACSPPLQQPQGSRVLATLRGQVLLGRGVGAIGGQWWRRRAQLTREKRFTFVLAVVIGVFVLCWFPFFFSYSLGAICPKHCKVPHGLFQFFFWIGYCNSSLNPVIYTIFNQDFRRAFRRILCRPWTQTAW
# assayProcedure: α2B (h) (antagonist radioligand) binding
Quick reference: log10(IC50) of the listed items.
Reminder: these figures are log10 of reported IC50, in µM before transformation.

Past entries and their recorded results:
May I ask what log10(IC50) has been recorded for "CCC(=O)NC1CCN(CCc2cccs2)CC1" ?
1.04

May I ask what log10(IC50) has been recorded for "CCC(=O)NC1CCN(CCC(=O)OC)CC1" ?
2.41

May I ask what log10(IC50) has been recorded for "O=C(NC1CCN(CCc2ccccc2)CC1)c1ccoc1" ?
0.48

May I ask what log10(IC50) has been recorded for O=C(NC1CCN(CCc2ccccc2)CC1)c1ccccc1 [N-(1-phenethylpiperidin-4-yl)benzamide] ?
0.60

May I ask what log10(IC50) has been recorded for "O=C(CCCCCCCBr)NC1CCN(CCc2ccccc2)CC1" ?
0.76

Then this molecule:
May I ask what log10(IC50) has been recorded for "O=C(NC1CCN(CCc2ccccc2)CC1)c1ccco1" ?
0.66

###

Quick reference: nH of the listed items.
# targetOrTestSystem: δ2 (DOP) (h) (Homo sapiens, UniProt P41143)
# Sequence (P41143 whole entry): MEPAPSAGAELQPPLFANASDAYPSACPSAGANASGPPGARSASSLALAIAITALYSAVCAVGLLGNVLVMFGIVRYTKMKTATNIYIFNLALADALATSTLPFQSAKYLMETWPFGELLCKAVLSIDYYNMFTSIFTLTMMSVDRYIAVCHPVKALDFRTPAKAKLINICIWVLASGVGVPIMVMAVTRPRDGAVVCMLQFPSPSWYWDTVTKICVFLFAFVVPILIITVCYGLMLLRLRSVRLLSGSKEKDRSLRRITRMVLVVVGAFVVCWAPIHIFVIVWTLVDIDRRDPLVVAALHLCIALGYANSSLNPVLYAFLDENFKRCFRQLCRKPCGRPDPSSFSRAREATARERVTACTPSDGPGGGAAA
# Format: binding
Respond with the number and no other words.

May I ask what nH has been recorded for "O=C(NC1CCN(CCc2ccccc2)CC1)c1ccco1" ?
1

May I ask what nH has been recorded for "CCC(=O)NC1CCN(CCc2cccs2)CC1" ?
0.9

May I ask what nH has been recorded for O=C(NC1CCN(CCc2ccccc2)CC1)c1ccccc1 [N-(1-phenethylpiperidin-4-yl)benzamide] ?
0.7

May I ask what nH has been recorded for "O=C(NC1CCN(CCc2ccccc2)CC1)c1ccoc1" ?
1
